test system: Klebsiella pneumoniae; test: Antibacterial activity against Klebsiella pneumoniae producing extended spectrum beta lactamase enzyme after 24 hr by CLSI broth microdilution method; assay type: functional

- COMPOUND: "O=C(Cc1ccc(F)cc1)Nc1ccc(-c2nc3ccccc3s2)cc1"
  MIC (mg/L): 50
- COMPOUND: "CC(C)(C)c1ccc(C(=O)Nc2ccc(-c3nc4ccccc4s3)cc2)cc1"
  MIC (mg/L): 50
- COMPOUND: "O=C(Cc1ccc(Cl)cc1)Nc1ccc(-c2nc3ccccc3s2)cc1"
  MIC (mg/L): 50
- COMPOUND: "Cc1ccc(CC(=O)Nc2ccc(-c3nc4ccccc4s3)cc2)cc1"
  MIC (mg/L): 50
- COMPOUND: "O=C(Nc1ccc(-c2nc3ccccc3s2)cc1)c1ccc(Br)cc1"
  MIC (mg/L): 50
- COMPOUND: "O=C(Nc1ccc(-c2nc3ccccc3s2)cc1)c1ccc(F)cc1"
  MIC (mg/L): 50
- COMPOUND: "COc1ccc(CC(=O)Nc2ccc(-c3nc4ccccc4s3)cc2)cc1"
  MIC (mg/L): 50
- COMPOUND: "O=C(Cc1ccc(Br)cc1)Nc1ccc(-c2nc3ccccc3s2)cc1"
  MIC (mg/L): 50
- COMPOUND: "CCc1ccc(C(=O)Nc2ccc(-c3nc4ccccc4s3)cc2)cc1"
  MIC (mg/L): 50
- COMPOUND: "O=C(Nc1ccc(-c2nc3ccccc3s2)cc1)c1ccc([N+](=O)[O-])cc1"
  MIC (mg/L): 50
- COMPOUND: "O=C(Nc1ccc(-c2nc3ccccc3s2)cc1)c1ccc(Cl)cc1"
  MIC (mg/L): 25
- COMPOUND: "CC1COc2c(N3CCN(C)CC3)c(F)cc3c(=O)c(C(=O)O)cn1c23 (configuration not stated)"
  MIC (mg/L): 3.12
